Where these numbers come from: paper PMC8041433

- target-or-system: AChE in SH-SY5Y cells (Homo sapiens)
- Sequence (P22303 32-614): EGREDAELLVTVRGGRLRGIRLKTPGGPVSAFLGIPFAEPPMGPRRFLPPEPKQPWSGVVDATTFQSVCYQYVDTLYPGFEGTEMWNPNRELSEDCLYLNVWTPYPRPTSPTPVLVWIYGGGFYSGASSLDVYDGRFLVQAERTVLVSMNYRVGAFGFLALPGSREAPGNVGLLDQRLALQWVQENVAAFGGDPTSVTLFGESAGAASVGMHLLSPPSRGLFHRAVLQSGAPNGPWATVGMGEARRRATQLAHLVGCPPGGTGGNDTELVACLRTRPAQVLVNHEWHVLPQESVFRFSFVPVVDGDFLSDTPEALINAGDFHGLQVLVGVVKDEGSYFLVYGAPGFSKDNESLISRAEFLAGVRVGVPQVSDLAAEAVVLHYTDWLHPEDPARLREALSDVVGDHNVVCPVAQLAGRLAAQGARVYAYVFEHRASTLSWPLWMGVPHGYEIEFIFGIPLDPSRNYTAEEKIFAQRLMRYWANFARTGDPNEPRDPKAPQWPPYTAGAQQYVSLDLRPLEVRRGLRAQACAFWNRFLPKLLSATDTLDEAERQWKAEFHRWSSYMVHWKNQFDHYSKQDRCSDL
- run-description: cell-based
assay-endpoint: CC-v2 (curve classes)
Write the value as a bare number.

CC-v2 (curve classes) recorded for this compound, COc1cc2c(N3CCN(C(=O)Nc4ccc(OC(C)C)cc4)CC3)ncnc2cc1OCCCN1CCCCC1 [Tandutinib, reference compound] , is -2.1

CC-v2 (curve classes) recorded for this compound, O=C(C[S+]([O-])Cc1ccco1)NC/C=C\COc1cc(CN2CCCCC2)ccn1 (centres unmarked) [Lafutidine] , is -2.1

CC-v2 (curve classes) recorded for this compound, [H]/N=C(\N/C(=N/[H])NCCCCCCNC(=N)NC(=N)Nc1ccc(Cl)cc1)Nc1ccc(Cl)cc1 [Chlorhexidine diacetate, reference compound] , is -2.1

CC-v2 (curve classes) recorded for this compound, CNC(=O)Oc1cccc2c1OC(C)(C)O2 [Bendiocarb] , is -1.1

CC-v2 (curve classes) recorded for this compound, COc1cc(N)c(Cl)cc1C(=O)NC1CN2CCC1CC2.Cl (centres unmarked) [Zacopride hydrochloride] , is -2.2

CC-v2 (curve classes) recorded for this compound, CN1CCCN=C1/C=C/c1cccs1.O=C(O)C(O)C(O)C(=O)O [Pyrantel tartrate] , is -2.1

CC-v2 (curve classes) recorded for this compound, O=S1OC[C@@H]2[C@H](CO1)[C@]1(Cl)C(Cl)=C(Cl)[C@@]2(Cl)C1(Cl)Cl (some centres unmarked) [Endosulfan I] , is -1.1

CC-v2 (curve classes) recorded for this compound, C=CCN1CC[C@]23CCCC[C@H]2[C@H]1Cc1ccc(O)cc13 [Levallorphan] , is -2.1
